Origin of values: patent US10941120B1

- Tested on: vancomycin-resistant enterococci VRE 18-80
- Assay: MIC by microbroth dilution, VRE 18-80
- Type: cell-based
Each entry below carries its reported Minimum bacteriostatic concentration.
Measured Parameter: Minimum bacteriostatic concentration (µg/mL)

CO/N=C(\C(=O)N[C@@H]1C(=O)N2C(C(=O)O)=C(CSc3nc(=O)c(=O)[nH]n3C)CS[C@H]12)c1csc(N)n1 [Ceftriaxone sodium, ceftriaxone sodium]
8
Cc1nnc(SCC2=C(C(=O)O)N3C(=O)[C@@H](NC(=O)Cn4cnnn4)[C@H]3SC2)s1 [Cefazolin sodium, cefazolin sodium]
32

---

- System: carbapenem-resistant Acinetobacter baumannii CR-AB 18-560
- Assay: MIC by microbroth dilution, CR-AB 18-560
- Assay type: cell-based
Measured Parameter: Minimum bacteriostatic concentration

CO/N=C(\C(=O)N[C@@H]1C(=O)N2C(C(=O)O)=C(CSc3nc(=O)c(=O)[nH]n3C)CS[C@H]12)c1csc(N)n1 [Ceftriaxone sodium, ceftriaxone sodium]
>128 µg/mL
Cc1nnc(SCC2=C(C(=O)O)N3C(=O)[C@@H](NC(=O)Cn4cnnn4)[C@H]3SC2)s1 [Cefazolin sodium, cefazolin sodium]
>128 µg/mL
Nc1cc(=O)[nH]c(=O)[nH]1
>128 µg/mL
O=C(O)c1cc(O)c2c(c1)C(=O)c1cccc(O)c1C2=O
>128 µg/mL
O=C(Nc1cc(=O)[nH]c(=O)[nH]1)c1cc(O)c2c(c1)C(=O)c1cccc(O)c1C2=O
>128 µg/mL
